Listed below: DVS (% H2O uptake at 25 C./80% RH) values for each entry.
assay: Dynamic Vapor Sorption (DVS) hygroscopicity; format: physicochemical; details: 25 C., 80% RH
MEASUREMENT TYPE: DVS (% H2O uptake at 25 C./80% RH) (%)

COMPOUND | MEASUREMENT TYPE | RESULT VALUE
CC(C)C1C2CCC(C2)C1N.Cl (racemic) [HCl salt Type A, reference compound] | DVS (% H2O uptake at 25 C./80% RH) | 0.55
CC(C)[C@@H]1[C@H]2CC[C@H](C2)[C@H]1N.O=C(O)/C=C\C(=O)O [Maleate Type A] | DVS (% H2O uptake at 25 C./80% RH) | 0.02
CC(C)[C@@H]1[C@H]2CC[C@H](C2)[C@H]1N.O=C(O)/C=C/C(=O)O [Fumarate Type A] | DVS (% H2O uptake at 25 C./80% RH) | 0.15
CC(C)[C@@H]1[C@H]2CC[C@H](C2)[C@H]1N [L-malate Type C] | DVS (% H2O uptake at 25 C./80% RH) | 0.18
CC(C)[C@@H]1[C@H]2CC[C@H](C2)[C@H]1N (racemic) [Phosphate Type B] | DVS (% H2O uptake at 25 C./80% RH) | 1.18
CC(C)[C@@H]1[C@H]2CC[C@H](C2)[C@H]1N.O=C(O)CCC(=O)O [Succinate Type A] | DVS (% H2O uptake at 25 C./80% RH) | 0.08
